B1: ATL3 (parent)
chain: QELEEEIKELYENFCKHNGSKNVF

Variants of: B1
Test: protein stability index of a GFP-peptide fusion (GPS, HEK-293T) (PSI 1-6); higher = more stable;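 note: lentivirally expressed fusions sorted by FACS into six bins by GFP to DsRed ratio, PSI derived from sequencing read proportions per bin multiplied by bin number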
Settings: c terminus: a fixed tail appended
Param threshold (3) applies to protein stability index; output Satisfied when value >= threshold, Not satisfied when value < threshold.

Study these solved cases before continuing.
E6R = Not satisfied
E9G = Not satisfied
K21S = Not satisfied
Q1R = Not satisfied
L10V = Satisfied
I7D = Satisfied
Y11F = Not satisfied
E9F = Not satisfied
F24E = Not satisfied
L10C = Satisfied

Query: Please tell me: is the variant K21W at or over 3 in terms of protein stability index?
Result: Not satisfied

Query: Please tell me: is the variant Q1D at or over 3 in terms of protein stability index?
Result: Satisfied

Query: Please tell me: is the variant N18D at or over 3 in terms of protein stability index?
Result: Not satisfied

Query: Please tell me: is the variant E9W at or over 3 in terms of protein stability index?
Result: Not satisfied

Query: Please tell me: is the variant V23H at or over 3 in terms of protein stability index?
Result: Satisfied

Query: Please tell me: is the variant Y11Q at or over 3 in terms of protein stability index?
Result: Satisfied

Query: Please tell me: is the variant F14V at or over 3 in terms of protein stability index?
Result: Satisfied

Query: Please tell me: is the variant I7Y at or over 3 in terms of protein stability index?
Result: Satisfied

Query: Please tell me: is the variant K8Y at or over 3 in terms of protein stability index?
Result: Not satisfied

Query: Please tell me: is the variant E2G at or over 3 in terms of protein stability index?
Result: Satisfied

Query: Please tell me: is the variant Y11V at or over 3 in terms of protein stability index?
Result: Satisfied

Query: Please tell me: is the variant N18G at or over 3 in terms of protein stability index?
Result: Not satisfied
